target: SARS-CoV-2 wild-type spike (S) protein (SARS-CoV-2, WT (MN908947), UniProt P0DTC2); test: cell-based or functional assay
parameter: authentic virus IC50(μg/ml), Wild-type (µg/mL)
Express your answer in µg/mL, writing the number without its unit.

Task: Which authentic virus IC50(μg/ml), Wild-type value belongs to XGv265 (antibody, V domains shown) VH: QITLKESGPTLVKPTQTLTLTCNFSGFSLNTYGVGVGWIRQPPGKALEWLALIYWDGDERYGPFFKNKVTIAKDTSKNQVVLTMTNMDPVDTATYYCARHLIPTIFDYWGQGTLVTVSS VL: QSALTQPASVSGSPGQSITISCTGTSSDVGGSNYVSWYQHHPDRAPKLLIYEVTNRPSGVSNRFSGSKSANTASLTISGLQAEDEADYYCSSYTTTSTHILFGGGTKLTV ?
Result: 0.0122
